EC50 (nM) in the Presence of 1 µg/mL hIL-18BP-hFc, hIL-18 reporter assay listing for selected binders.
- experimental-system: T1, hIL-18BP-hFc (human, UniProt O95998 31-194, limits assumed)
- T1 sequence (looked up): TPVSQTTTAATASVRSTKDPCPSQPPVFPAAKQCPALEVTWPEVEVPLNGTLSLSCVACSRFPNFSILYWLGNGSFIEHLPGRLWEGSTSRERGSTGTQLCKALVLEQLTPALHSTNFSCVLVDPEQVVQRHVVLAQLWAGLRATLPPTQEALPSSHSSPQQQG
- experiment-description: cell-based or functional assay
value-type: EC50 (nM) in the Presence of 1 µg/mL hIL-18BP-hFc, hIL-18 reporter assay

binder	recorded-result
IL-18 variant polypeptide M5 (ligand) YFEKLTSKLSVIRNLNDQVLFIDQGNRPLFEDMTDSDCRDNAPRTIFIISMYKWSPWRGMAVTISVKCEKISTLSCENKIISFKEMNPPDVIKDTKSDIIFFQTSVPGHDNKMQFESSSYEGYFLACEKERDLFKLILKKEDELGDRSIMFTVQKED	0.21 nM
IL-18 variant polypeptide M22 (ligand) YFPKLRSKLSVIRNLNDQVLFIDQGNRPLFEDMTDSDCRDNAPRTIFIISMYKYSRGRGMAVTISVKCEKISTLSCENKIISFKEMNPPDKIKDTKSDIIFFQSSVPGHDNKMQFESSSYEGYFLACEKERDLFKLILKKEDELGDRSIMFTVQNED	7.5 nM
IL-18 variant polypeptide LM5 (ligand) YFGKLRSKLSVIRNLNDQVLFIDQGNRPLFEDMTDSDCRDNAPRTIFIISMYKWSSQRGMAVTISVKCEKISTLSCENKIISFKEMNPPDNIKDTKSDIIFFQRSVPGHDNKMQFESSSYEGYFLACEKERDLFKLILKKEDELGDRSIMFTVQNED	0.12 nM
